Assayed system: Pim-2 (Homo sapiens (Human), UniProt Q9P1W9)
Sequence (Q9P1W9 whole entry): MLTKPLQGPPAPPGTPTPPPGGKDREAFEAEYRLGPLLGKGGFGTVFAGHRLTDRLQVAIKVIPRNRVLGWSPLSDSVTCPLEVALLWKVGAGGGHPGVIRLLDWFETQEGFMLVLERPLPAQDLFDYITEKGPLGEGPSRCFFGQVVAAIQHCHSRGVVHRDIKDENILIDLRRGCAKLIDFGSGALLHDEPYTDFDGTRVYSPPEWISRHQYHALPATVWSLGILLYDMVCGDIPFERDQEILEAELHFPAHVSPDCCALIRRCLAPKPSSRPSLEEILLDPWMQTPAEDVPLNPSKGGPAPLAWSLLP
Method: ADP-Glo Kinase Assay, Pim-2
Format: biochemical
Conditions used: 1 μM compound; read-out: Pim-2 % INH (1 μM)
Structures can show the parent of a compound that is named as a salt.
Endpoint label: inhibition at 1 µM (%)
Your answer is read as %, so omit the unit and give the number.

Solved cases (4 shown):
compound="O=[N+]([O-])c1c(Br)c(Br)cc2c1nc(N1CCNCC1)n2CC1CCC1 [Example 2F, hydrochloride]" unit_of_measure=% meas_value=70
compound="CC(C)n1c(NCC2CNCCO2)nc2c(C#N)c(Br)c(Br)cc21 (centres unmarked) [Example 1BN]" unit_of_measure=% meas_value=29
compound="NCCCNc1nc2c([N+](=O)[O-])c(Br)c(Br)cc2n1C1CCCC1 [Example 2H, hydrochloride]" unit_of_measure=% meas_value=56
compound="Cl.O=[N+]([O-])c1c(Br)c(Br)cc2c1nc(N1CCNCC1)n2C1CCCC1 [Example 2D, hydrochloride]" unit_of_measure=% meas_value=53

Task: Specify measured inhibition at 1 µM for CC(C)n1c(N2CCNCC2)nc2c(C#N)c(Br)c(Br)cc21 [Example 1BL] .
Output: 33

Task: Specify measured inhibition at 1 µM for CC(C)n1c(N2CCOCC2)nc2c([N+](=O)[O-])c(Br)c(Br)cc21 [Example 22K] .
Output: 40

Task: Specify measured inhibition at 1 µM for CC(C)n1c(NC2CCCNC2)nc2c(C#N)c(Br)c(Br)cc21 (centres unmarked) [Example 1BT] .
Output: 16

# credit: patent US10174013B2
